# GI50 per record follows
System: OVCAR-8
TEST_METHOD_NOTES: NCI tumour cell line growth inhibition, 48 h
Calls of active or inactive are those of the source. Rule as the data show it: active = GI50 up to about 1.1 µM and inactive = higher.

Consider the worked cases shown below.
O=C(O)CC12CC3CC(CC(O)(C3)C1)C2    > 100 µM (inactive)
CC1N=C(c2ccccc2)OC1=O (configuration not stated)    > 100 µM (inactive)
CCOC(=O)c1ccc(-n2nnc(C(N)=O)c2O)cc1    > 100 µM (inactive)
Cc1ccc(C(O)(c2ccc(C)cc2)c2ccccn2)cc1    > 100 µM (inactive)
CN(C)c1cccc2c1C(=O)C=CC21CCc2ccc(N(C)C)c3c(N(C)C)ccc1c23 (configuration not stated)    13.7 µM (inactive)

-- ask Look up GI50 for this compound: COC12OC3(C4OC41)C(C(=O)O[C@H]3CO[Si](C)(C)C(C)(C)C)C2C(=O)Oc1ccccc1 (some centres not stated)
-- reply > 100 µM (inactive)

-- ask Look up GI50 for this compound: CCOC(=O)C(NO)C(Sc1ccccc1)c1ccc(OC)cc1 (configuration not stated)
-- reply > 100 µM (inactive)

-- ask Look up GI50 for this compound: `OC[C@@H](O)[C@H](O)[C@@H](O)/C=N/Nc1ccc(Cl)nn1`
-- reply > 100 µM (inactive)

-- ask Look up GI50 for this compound: COC(=O)C1(Cc2ccc3c(c2)CCC3)Cc2ccc3c(c2C1)CCC3 (configuration not stated)
-- reply 32.1 µM (inactive)

###

Tested on: SR
TEST_METHOD_NOTES: NCI tumour cell line growth inhibition, 48 h
Active and inactive are the calls of the source. Rule as the data show it: active = GI50 up to about 1.1 µM and inactive = higher.
Please reply with one of these outcomes: 1 = active, 0 = inactive

C=C1C2C[C@@H]3O[C@H]4C[C@H]5O[C@@]6(C[C@@H]7O[C@]8(C[C@H](C)[C@@H]9O[C@@H]%10CC(CO)O[C@@H]%10C[C@@H]9O8)C[C@H](C)[C@@H]7O6)C[C@H]5O[C@H]4[C@H](C)[C@H]3OC(=O)C[C@H]3CC[C@@H]4OC5[C@H]6O[C@]7(CC[C@H]8CC(=C)[C@H](CC[C@@H](C[C@H]1C)O2)O8)CC6O[C@@H]5[C@@H](O7)[C@H]4O3 (stereo partly drawn)    1

Okay, next one:
-- ask Query: recorded result category for CN(C)CCOC1(Cc2ccc(Cl)cc2Cl)CCC(C(C)(C)C)CC1 (stereo not drawn) in this test
-- reply 0

###

Tested on: NCI-H23
TEST_METHOD_NOTES: NCI tumour cell line growth inhibition, 48 h
Active and inactive are the calls of the source. No stated cut-off is given here; in the data, active = GI50 up to about 1.1 µM and inactive = higher.
# GI50 per record follows

O=C1CCCC2=C1CC1=C(CCCC1=O)N2c1cccc([N+](=O)[O-])c1    > 100 µM (inactive)
C/C(Nc1ccc(F)cc1)=C1/CCOC1=O    > 100 µM (inactive)
COC(=O)C(C(=O)C(=O)Nc1cccc([N+](=O)[O-])c1)c1nc2ccc([N+](=O)[O-])cc2nc1O (stereo unspecified)    > 100 µM (inactive)
O=C(O)c1ccccc1C(=O)Nc1cc2c(cc1Br)-c1ccccc1C2=O    > 100 µM (inactive)
COc1cc2c(cc1OC)C(=O)C1(C2)[C@H](c2ccccc2)C2C(=O)c3cc(OC)c(OC)cc3C2[C@H]1c1ccccc1 (stereo partly specified)    > 100 µM (inactive)
c1ccc(-c2cc(-c3cc(-c4ccccc4)n(-c4ccccc4)n3)nn2-c2ccccc2)cc1    > 100 µM (inactive)
Cc1nc(N(CCO)CCO)c2sc(=S)n(-c3ccccc3)c2n1    > 100 µM (inactive)
C/C(=N\Nc1cc(CN2CCCC2)c(-c2ccc(Cl)cc2)nn1)C(=O)O    > 100 µM (inactive)
CCOC(CI)O[C@@H]1C=C[C@H](OC(C)=O)C1 (stereo partly specified)    > 100 µM (inactive)
Cc1n[nH]c(=O)n1-n1cccc1    > 100 µM (inactive)

-- ask Look up GI50 for this compound: CC(C(=O)n1ccnc1)N1c2ccccc2Sc2ccccc21 (stereo unspecified)
-- reply 78.7 µM (inactive)

-- ask Look up GI50 for this compound: CC1(C)OC2[C@@H](CO[C@@]3([C@@H](O)CCO)OC(C)(C)O[C@@H]23)O1 (stereo partly specified)
-- reply > 100 µM (inactive)

###

System: OVCAR-5
TEST_METHOD_NOTES: NCI tumour cell line growth inhibition, 48 h
Calls of active or inactive are those of the source. No stated cut-off is given here; in the data, active = GI50 up to about 1.1 µM and inactive = higher.
# GI50 per record follows

Consider the worked cases shown below.
CCOc1ccccc1NC(=O)C(=O)C(/C(=N/N)C(=O)OC)c1nc2ccc([N+](=O)[O-])cc2nc1O (stereo unspecified)    > 100 µM (inactive)
CN(C)CCNc1ncnc2[nH]c(-c3ccc4ccccc4c3)nc12    > 100 µM (inactive)
Nc1ccc2c(c1)C1=NNC(=O)CC1C2 (stereo unspecified)    > 92.5 µM (inactive)
CC[C@]12C=CCN3CCC4(c5cc(/N=N/c6ccccc6)c(OC)cc5N(C)[C@H]4[C@@](O)(C(=O)OC)[C@@H]1OC(C)=O)[C@@H]32 (stereo partly specified)    17 µM (inactive)
CSC(=S)CC(O)[C@@H]1CC2c3ccccc3C1c1ccccc12 (stereo partly specified)    16.7 µM (inactive)

-- ask Look up GI50 for this molecule: `Cc1nc2ccccc2c(=O)n1CC(=O)O`
-- reply > 100 µM (inactive)

-- ask Look up GI50 for this molecule: `COc1cc(/C=C2/CCCc3ccccc3C2=O)cc(OC)c1OC`
-- reply 30.6 µM (inactive)

-- ask Look up GI50 for this molecule: `COc1ccc2oc(=O)cc(C)c2c1`
-- reply > 100 µM (inactive)

-- ask Look up GI50 for this molecule: `CC1=N/C(=C\c2cccc([N+](=O)[O-])c2)C(=O)O1`
-- reply > 100 µM (inactive)

-- ask Look up GI50 for this molecule: `CCN(CC)CCC(=O)/C=C/c1ccccc1`
-- reply 17.5 µM (inactive)

-- ask Look up GI50 for this molecule: CC1=NN(c2cccc(Cl)c2)C2(SCC(=O)N2c2nc3ccccc3s2)/C1=C\c1ccc(N(C)C)cc1 (stereo unspecified)
-- reply > 100 µM (inactive)

###

System: SNB-75
TEST_METHOD_NOTES: NCI tumour cell line growth inhibition, 48 h
Active and inactive are the calls of the source. Cut-off read from the data, not from the text of the source: active = GI50 up to about 1.1 µM and inactive = higher.
Please reply with one of these outcomes: T (active), F (inactive)

c1ccc(-c2cc(-c3cc(-c4ccccc4)n(-c4ccccc4)n3)nn2-c2ccccc2)cc1    F
COc1cc2cc(C(=O)N3C[C@H](CCl)c4c3cc(N)c3ccccc43)[nH]c2c(OC)c1OC    F
COc1cccc2c1OC1c3ccccc3OCC1C2 (stereo not given)    T
O=[N+]([O-])C1=Cc2c(O)ccc(O)c2C2OC=CC12 (stereo not given)    F

Okay, next one:
-- ask Query: recorded result category for `O=C1CCCC2=C1CC1=C(CCCC1=O)N2c1cccc([N+](=O)[O-])c1` in this test
-- reply F

###

# GI50 per record follows
System: OVCAR-8
TEST_METHOD_NOTES: NCI tumour cell line growth inhibition, 48 h
The source made the active and inactive calls. Rule as the data show it: active = GI50 up to about 1.1 µM and inactive = higher.

CN1CCc2c([nH]c3ccccc23)C1    > 100 µM (inactive)
C[C@]12CCc3nonc3C1CC[C@@H]1C2CC[C@@]2(C)C1CC[C@@H]2O (stereo not given in full)    > 100 µM (inactive)
C[N+](C)(C)/C=N\c1cccc2c1CCCC2    > 100 µM (inactive)
Cc1nc2cc3nc4ccccc4c(O)c3cc2s1    > 100 µM (inactive)
COc1ccc(-c2cc(=O)c3c(OC)c(OC)c(OC)c(OC)c3o2)c(OC)c1    21.9 µM (inactive)

-- ask Look up GI50 for this molecule: CCOC(=O)CC(NCc1ccc(/N=C/c2nc3ccc(C(F)(F)F)cc3nc2-c2ccccc2)cc1)C(=O)OCC (stereo not given)
-- reply > 100 µM (inactive)

-- ask Look up GI50 for this molecule: `O=C(Nc1ccccc1Cl)c1cc(S(=O)(=O)Nc2n[nH]c(=O)n2-c2ccccc2)c(S)cc1Cl`
-- reply > 100 µM (inactive)

-- ask Look up GI50 for this molecule: COc1ccccc1N1C(=O)/C(=C\c2cccc(Oc3ccccc3)c2)SC1c1ccccc1 (stereo not given)
-- reply 31.3 µM (inactive)

-- ask Look up GI50 for this molecule: `O=C(OCCN=c1c2ccccc2ccc2ccccc12)c1ccc([N+](=O)[O-])cc1`
-- reply > 100 µM (inactive)

-- ask Look up GI50 for this molecule: O=C1C2c3[nH]c4ccccc4c3C3CCSCC3C2C(=O)N1c1ccccc1 (stereo not given)
-- reply > 100 µM (inactive)

###

GI50, HCT-15, per-entry values.
Unit µM implied. Number only.

COC(=O)[C@H]1C2CC[C@@H]3C45C[C@@H](c6ccoc6)O[C@@H]4O[C@@H](O2)C31CCC5C (stereo not given in full)    86.3
O=c1[nH]nc(Nc2ccc(Cl)cc2)c2nnn(-c3ccc([N+](=O)[O-])cc3)c12    14.4
CC(=O)CCn1ncc(Cl)c(Cl)c1=O    6.55

// moving on: another record for GI50
-- ask Can you look up GI50 on HCT-15 for `COc1ccc(N2C(=O)/C(=C/c3ccc(N(CCC#N)CCC#N)cc3C)N=C2/C=C\c2ccccc2)cc1` ?
-- reply 5.69
